System: Pseudomonas aeruginosa
Assay type: cell-based
Settings: 16 h
Bridge positions count the residues as written; N and C are the ends. Square brackets hold non-standard residues; d marks the D form. Peptide text beside a SMILES is read from it. R8 = C=CCCCCCC[C@@](C)(N)C(=O)O; S5 = C=CCCC[C@](C)(N)C(=O)O

molecule	valueComparator	MIC, Gram Negative, P.a. / µM
CC[C@H](C)[C@H](NC(=O)CN)C(=O)N[C@@H](CCCCN)C(=O)N[C@@H](CCCCN)C(=O)N[C@@H](Cc1ccccc1)C(=O)N[C@@H](CC(C)C)C(=O)N[C@@H](CCCCN)C(=O)N[C@]1(C)CCCCCCC=CCCC[C@@](C)(C(=O)N[C@@H](Cc2ccccc2)C(=O)N[C@@H](CCCCN)C(N)=O)NC(=O)[C@H](CCCCN)NC(=O)[C@H](C(C)C)NC(=O)[C@H](Cc2ccccc2)NC(=O)[C@H](CCCCN)NC(=O)[C@H](CCCCN)NC(=O)[C@H](C)NC1=O [Peptide 8] (H-GIKKFLK[R8]AKKFVK[S5]FK-NH2; staple 8-15)	>	50
CC[C@H](C)[C@H](NC(=O)CN)C(=O)N[C@@H](CCCCN)C(=O)N[C@@H](CCCCN)C(=O)N[C@@H](Cc1ccccc1)C(=O)N[C@@H](CC(C)C)C(=O)N[C@@H](CCCCN)C(=O)N[C@@H](CO)C(=O)N[C@]1(C)CCCCCCC=CCCC[C@@](C)(C(=O)N[C@@H](CCCCN)C(N)=O)NC(=O)[C@H](C)NC(=O)[C@H](CCCCN)NC(=O)[C@H](C(C)C)NC(=O)[C@H](Cc2ccccc2)NC(=O)[C@H](CCCCN)NC(=O)[C@H](CCCCN)NC1=O [Peptide 9] (H-GIKKFLKS[R8]KKFVKA[S5]K-NH2; staple 9-16)	=	6.25
CC[C@H](C)[C@H](NC(=O)CN)C(=O)N[C@@H](CCCCN)C(=O)N[C@@H](CCCCN)C(=O)N[C@@]1(C)CCCC=CCCC[C@@](C)(C(=O)N[C@@H](CCCCN)C(=O)N[C@@H](CCCCN)C(=O)N[C@@H](Cc2ccccc2)C(=O)N[C@H](C(=O)N[C@@H](CCCCN)C(=O)N[C@@H](C)C(=O)N[C@@H](Cc2ccccc2)C(=O)N[C@@H](CCCCN)C(N)=O)C(C)C)NC(=O)[C@H](CO)NC(=O)[C@H](CCCCN)NC(=O)[C@H](CC(C)C)NC1=O [Peptide 3] (H-GIKK[S5]LKS[S5]KKFVKAFK-NH2; staple 5-9)	=	3.125
CC[C@H](C)[C@H](NC(=O)CN)C(=O)N[C@@H](CCCCN)C(=O)N[C@@H](CCCCN)C(=O)N[C@@H](Cc1ccccc1)C(=O)N[C@@H](CC(C)C)C(=O)N[C@@H](CCCCN)C(=O)N[C@@H](CO)C(=O)N[C@@]1(C)CCCC=CCCC[C@@](C)(C(=O)N[C@@H](CCCCN)C(=O)N[C@@H](C)C(=O)N[C@@H](Cc2ccccc2)C(=O)N[C@@H](CCCCN)C(N)=O)NC(=O)[C@H](Cc2ccccc2)NC(=O)[C@H](CCCCN)NC(=O)[C@H](CCCCN)NC1=O [Peptide 5] (H-GIKKFLKS[S5]KKF[S5]KAFK-NH2; staple 9-13)	=	6.25
CC[C@H](C)[C@@H]1NC(=O)[C@@](C)(N)CCCC=CCCC[C@@](C)(C(=O)N[C@@H](CC(C)C)C(=O)N[C@@H](CCCCN)C(=O)N[C@@H](CO)C(=O)N[C@@H](C)C(=O)N[C@@H](CCCCN)C(=O)N[C@@H](CCCCN)C(=O)N[C@@H](Cc2ccccc2)C(=O)N[C@H](C(=O)N[C@@H](CCCCN)C(=O)N[C@@H](C)C(=O)N[C@@H](Cc2ccccc2)C(=O)N[C@@H](CCCCN)C(N)=O)C(C)C)NC(=O)[C@H](CCCCN)NC(=O)[C@H](CCCCN)NC1=O [Peptide 2] (H-[S5]IKK[S5]LKSAKKFVKAFK-NH2; staple 1-5)	=	1.56
CC[C@H](C)[C@H](NC(=O)CN)C(=O)N[C@@H](CCCCN)C(=O)N[C@@H](CCCCN)C(=O)N[C@]1(C)CCCCCCC=CCCC[C@@](C)(C(=O)N[C@H](C(=O)N[C@@H](CCCCN)C(=O)N[C@@H](C)C(=O)N[C@@H](Cc2ccccc2)C(=O)N[C@@H](CCCCN)C(N)=O)C(C)C)NC(=O)[C@H](CCCCN)NC(=O)[C@H](CCCCN)NC(=O)[C@H](C)NC(=O)[C@H](CO)NC(=O)[C@H](CCCCN)NC(=O)[C@H](CC(C)C)NC1=O [Peptide 7] (H-GIKK[R8]LKSAKK[S5]VKAFK-NH2; staple 5-12)	=	3.125
CC[C@H](C)[C@H](NC(=O)CN)C(=O)N[C@@H](CCCCN)C(=O)N[C@@H](CCCCN)C(=O)N[C@@H](Cc1ccccc1)C(=O)N[C@@H](CC(C)C)C(=O)N[C@@H](CCCCN)C(=O)N[C@@H](CO)C(=O)N[C@@H](C)C(=O)N[C@@H](CCCCN)C(=O)N[C@@H](CCCCN)C(=O)N[C@@]1(C)CCCC=CCCC[C@@](C)(C(=O)N[C@@H](CCCCN)C(N)=O)NC(=O)[C@H](C)NC(=O)[C@H](CCCCN)NC(=O)[C@H](C(C)C)NC1=O [Peptide 6] (H-GIKKFLKSAKK[S5]VKA[S5]K-NH2; staple 12-16)	=	1.56
CC[C@H](C)[C@H](NC(=O)CN)C(=O)N[C@@H](CCCCN)C(=O)N[C@@H](CCCCN)C(=O)N[C@@H](Cc1ccccc1)C(=O)N[C@@H](CC(C)C)C(=O)N[C@@H](CCCCN)C(=O)N[C@@]1(C)CCCC=CCCC[C@@](C)(C(=O)N[C@H](C(=O)N[C@@H](CCCCN)C(=O)N[C@@H](C)C(=O)N[C@@H](Cc2ccccc2)C(=O)N[C@@H](CCCCN)C(N)=O)C(C)C)NC(=O)[C@H](CCCCN)NC(=O)[C@H](CCCCN)NC(=O)[C@H](C)NC1=O [Peptide 4] (H-GIKKFLK[S5]AKK[S5]VKAFK-NH2; staple 8-12)	=	1.56
